Test system UniProtKB O43570, Ki listed for each of the molecules.
Express it in nM; write the number only.

Exercise: Param item = CO[C@H]1O[C@H](CO)[C@@H](O)[C@H](O)[C@H]1NC(=S)NCCCCOc1ccc2c(-c3ccccc3)cc(=O)oc2c1 [Compound 21e] ; retrieve measured Ki.
Solution: 228

Exercise: Param item = CO[C@H]1O[C@H](CO)[C@@H](O)[C@H](O)[C@H]1NC(=S)NCCCCCCOc1ccc2c(-c3ccccc3)cc(=O)oc2c1 [Compound 21f] ; retrieve measured Ki.
Solution: 164

---

Give S.I. II/XII for every item shown.
Molecular target: hCA XII (Homo sapiens)
Sequence (O43570 25-354): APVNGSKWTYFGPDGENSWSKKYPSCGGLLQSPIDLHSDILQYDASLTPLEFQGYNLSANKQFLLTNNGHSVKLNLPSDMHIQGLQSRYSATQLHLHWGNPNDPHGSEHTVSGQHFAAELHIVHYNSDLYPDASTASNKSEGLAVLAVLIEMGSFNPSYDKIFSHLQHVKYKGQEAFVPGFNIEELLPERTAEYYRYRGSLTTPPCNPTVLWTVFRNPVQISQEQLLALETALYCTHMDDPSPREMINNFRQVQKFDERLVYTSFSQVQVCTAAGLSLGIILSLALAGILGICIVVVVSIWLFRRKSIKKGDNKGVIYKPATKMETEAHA
Experiment: stopped-flow CO2 hydration assay, hCA XII
Settings: Ki (CA II)/Ki (CA XII)

Exercise: Param item = CO[C@H]1O[C@H](CO)[C@@H](O)[C@H](O)[C@H]1NC(=S)NCCCCCCOc1ccc2c(-c3ccccc3)cc(=O)oc2c1 [Compound 21f] ; retrieve measured S.I. II/XII.
Solution: 106

Exercise: Param item = CO[C@H]1O[C@H](CO)[C@@H](O)[C@H](O)[C@H]1NC(=S)NCCCCOc1ccc2c(-c3ccccc3)cc(=O)oc2c1 [Compound 21e] ; retrieve measured S.I. II/XII.
Solution: >439

Exercise: Param item = `NS(=O)(=O)c1ccc(CCNC(=S)N[C@@H]2O[C@H](CO)[C@@H](O)[C@H](O)[C@H]2O)cc1` ; retrieve measured S.I. II/XII.
Solution: 11.1

Exercise: Param item = `NS(=O)(=O)c1ccc(CCNC(=S)N[C@@H]2O[C@H](CO)[C@H](O)[C@H](O)[C@H]2O)cc1` ; retrieve measured S.I. II/XII.
Solution: 0.9

Exercise: Param item = `NS(=O)(=O)c1ccc(NC(=S)N[C@@H]2O[C@H](CO)[C@H](O)[C@H](O)[C@H]2O)cc1` ; retrieve measured S.I. II/XII.
Solution: 11.0

Exercise: Param item = `NS(=O)(=O)c1ccc(NC(=S)N[C@@H]2O[C@H](CO)[C@@H](O)[C@H](O)[C@H]2O)cc1` ; retrieve measured S.I. II/XII.
Solution: 0.9
